Assay: E. coli acrAB mutant growth effects, primary screen, E. coli filamentation inducers, strain DRC39, OD650, 48 h (AID 1179);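 further: screen aims at cell division blockers that make cells filament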
Conditions: E. coli DRC39 delta-acrAB growth, higher = more signal, called active from +8 up or from −8 down
Active and inactive are the calls of the source.
quantityKind: z-score

Answered examples (2):
>>> testresult("COCCOC(=O)N1C(=O)[C@@]2(c3cc(C#CCCO)ccc31)[C@H](C(=O)Nc1nc3ccccc3s1)[C@H]1C(=O)O[C@H](c3ccccc3)[C@H](c3ccccc3)N1[C@@H]2c1ccccc1OCCO")
"-0.339 (inactive)"
>>> testresult("CC[C@H]1C2=C3C(CC[C@H]4C(OCc5ccc(F)cc5C(F)(F)F)OC[C@](C)([C@@H]34)N(C(=O)OC(C)(C)C)C2)C(COC)C1COC (stereo partly drawn)")
"0.0886 (inactive)"

Now consider a different compound.
input: Fill blank: measured z-score of the compound `COc1ccc(CCNC(=O)[C@@]2(Sc3ccc(C)cc3)CC(=O)N(C3Cc4ccccc4C3)[C@@H]2c2ccc(CO)cc2)cc1` is ____.
output: 0.005 (inactive)
